Form field: MIC (one value per entry).
test system: Escherichia coli; assay: Antibacterial activity against Escherichia coli incubated for 18 to 20 hrs by double dilution method; type: functional; conditions: time 18-20 hrs

MOLECULE: O=C(Nc1ccc(Sc2nc3ccccc3s2)c(Cl)c1)N1CCSC1
MIC: > 200 µM
//
MOLECULE: O=C(Nc1ccc(Sc2nc3ccccc3s2)cc1)N1CCOCC1
MIC: > 200 µM
//
MOLECULE: O=C(Nc1ccc(F)c(F)c1)Nc1ccc(Sc2nc3cc(Cl)ccc3s2)c(Cl)c1
MIC: > 200 µM
//
MOLECULE: O=C(Nc1ccc(Sc2nc3ccccc3s2)cc1)Nc1ccc(C(F)(F)F)cc1
MIC: > 200 µM
//
MOLECULE: CC1COc2c(N3CCN(C)CC3)c(F)cc3c(=O)c(C(=O)O)cn1c23 (centres undefined)
MIC: 0.39 µM
//
MOLECULE: CN1CCN(C(=O)Nc2ccc(Sc3nc4ccccc4s3)c(Cl)c2)CC1
MIC: 200 µM
//
MOLECULE: O=C(Nc1ccc(Sc2nc3ccccc3s2)c(Cl)c1)Nc1ccc(Cl)cc1Cl
MIC: > 200 µM
//
MOLECULE: O=C(Nc1ccc(Sc2nc3ccccc3s2)c(Cl)c1)Nc1ccccc1C(F)(F)F
MIC: > 200 µM
//
MOLECULE: O=C(Nc1ccc(Sc2nc3ccccc3s2)c(Cl)c1)N1CCOCC1
MIC: > 200 µM

====

tested on: Staphylococcus aureus; assay: Antibacterial activity against methicillin-resistant Staphylococcus aureus ATCC2858 incubated for 18 to 20 hrs by double dilution method; format: functional; conditions: time 18-20 hrs
OBSERVATION TYPE: MIC

SAMPLE SMILES: O=C(Nc1ccc(Sc2nc3ccccc3s2)cc1)Nc1ccc(F)c(F)c1
TESTED ON: Staphylococcus aureus
OBSERVATION TYPE: MIC
RESULT: 0.78 µM

SAMPLE SMILES: O=C(Nc1ccc(Br)cc1)Nc1ccc(Sc2nc3ccccc3s2)c(Cl)c1
TESTED ON: Staphylococcus aureus
OBSERVATION TYPE: MIC
RESULT: 0.78 µM

SAMPLE SMILES: O=C(NCc1ccccc1Cl)Nc1ccc(Sc2nc3ccccc3s2)c(Cl)c1
TESTED ON: Staphylococcus aureus
OBSERVATION TYPE: MIC
RESULT: > 200 µM

====

tested on: Staphylococcus aureus; assay: Antibacterial activity against methicillin-resistant Staphylococcus aureus clinical isolate ATCC05107 incubated for 18 to 20 hrs by double dilution method; type: functional; conditions: time 18-20 hrs
OBSERVATION TYPE: MIC

SAMPLE SMILES: O=C(Nc1ccc(Sc2nc3ccccc3s2)cc1)Nc1ccc(C(F)(F)F)cc1
RESULT: 0.78 µM

SAMPLE SMILES: O=C(Nc1ccc(F)c(F)c1)Nc1ccc(Sc2nc3cc(Cl)ccc3s2)c(Cl)c1
RESULT: 1.56 µM

SAMPLE SMILES: O=C(Nc1ccc(Sc2nc3ccccc3s2)cc1)Nc1ccc(F)c(F)c1
RESULT: 3.12 µM

SAMPLE SMILES: O=C(Nc1ccc(C(F)(F)F)cc1)Nc1ccc(Sc2nc3ccccc3s2)c(Cl)c1
RESULT: 1.56 µM

SAMPLE SMILES: CN[C@H](CC(C)C)C(=O)N[C@H]1C(=O)N[C@@H](CC(N)=O)C(=O)N[C@H]2C(=O)N[C@H]3C(=O)N[C@H](C(=O)N[C@H](C(=O)O)c4cc(O)cc(O)c4-c4cc3ccc4O)[C@H](O)c3ccc(c(Cl)c3)Oc3cc2cc(c3O[C@@H]2O[C@H](CO)[C@@H](O)[C@H](O)[C@H]2O[C@H]2C[C@](C)(N)[C@H](O)[C@H](C)O2)Oc2ccc(cc2Cl)[C@H]1O
RESULT: 1.56 µM

====

tested on: Escherichia coli; assay: Antibacterial activity against Escherichia coli incubated for 18 to 20 hrs by double dilution method; type: functional; settings: time 18-20 hrs
OBSERVATION TYPE: MIC

SAMPLE SMILES: O=C(Nc1ccc(C(F)(F)F)cc1)Nc1ccc(Sc2nc3cc(Cl)ccc3s2)c(Cl)c1
TESTED ON: Escherichia coli
OBSERVATION TYPE: MIC
RESULT: > 200 µM
--
SAMPLE SMILES: O=C(Nc1ccccc1C(F)(F)F)N1CCC(Sc2nc3ccccc3s2)CC1
TESTED ON: Escherichia coli
OBSERVATION TYPE: MIC
RESULT: > 200 µM
--
SAMPLE SMILES: O=C(Nc1ccc(F)cc1)Nc1ccc(Sc2nc3ccccc3s2)c(Cl)c1
TESTED ON: Escherichia coli
OBSERVATION TYPE: MIC
RESULT: > 200 µM
--
SAMPLE SMILES: O=C(NCc1ccccc1Cl)Nc1ccc(Sc2nc3ccccc3s2)c(Cl)c1
TESTED ON: Escherichia coli
OBSERVATION TYPE: MIC
RESULT: > 200 µM
--
SAMPLE SMILES: CO[C@@]1(NC(=O)Cc2cccs2)C(=O)N2C(C(=O)O)=C(COC(N)=O)CS[C@@H]21
TESTED ON: Escherichia coli
OBSERVATION TYPE: MIC
RESULT: 50 µM
--
SAMPLE SMILES: O=C(Nc1ccc(Sc2nc3ccccc3s2)cc1)Nc1ccc(F)c(F)c1
TESTED ON: Escherichia coli
OBSERVATION TYPE: MIC
RESULT: > 200 µM
--
SAMPLE SMILES: O=C(Nc1ccc(Sc2nc3ccccc3s2)c(Cl)c1)N1CCCC1
TESTED ON: Escherichia coli
OBSERVATION TYPE: MIC
RESULT: > 200 µM
--
SAMPLE SMILES: O=C(Nc1ccc(Br)cc1)Nc1ccc(Sc2nc3ccccc3s2)c(Cl)c1
TESTED ON: Escherichia coli
OBSERVATION TYPE: MIC
RESULT: > 200 µM
--
SAMPLE SMILES: O=C(Nc1ccc(C(F)(F)F)cc1)Nc1ccc(Sc2nc3ccccc3s2)c(Cl)c1
TESTED ON: Escherichia coli
OBSERVATION TYPE: MIC
RESULT: > 200 µM
--
SAMPLE SMILES: CC(=O)NC[C@H]1CN(c2ccc(N3CCOCC3)c(F)c2)C(=O)O1
TESTED ON: Escherichia coli
OBSERVATION TYPE: MIC
RESULT: > 50 µM

====

test system: Staphylococcus aureus; experiment: Antibacterial activity against methicillin-resistant Staphylococcus aureus ATCC2858 incubated for 18 to 20 hrs by double dilution method; type: functional; details: time 18-20 hrs
MIC values by entry
OBSERVATION TYPE: MIC

SAMPLE SMILES: O=C(Nc1ccc(Sc2nc3ccccc3s2)c(Cl)c1)N1CCSC1
RESULT: > 200 µM
--
SAMPLE SMILES: O=C(Nc1ccc(Sc2nc3ccccc3s2)c(Cl)c1)N1CCOCC1
RESULT: > 200 µM
--
SAMPLE SMILES: O=C(Nc1ccc(Sc2nc3ccccc3s2)c(Cl)c1)N1CCCC1
RESULT: > 200 µM
